Origin of the recorded values: paper PMC7216467

Procedure Text: ABTS scavenging assay
Conditions Used: 500 µg/mL
Experimental: About 300 μL compounds working dilutions and 3.0 mL ABTS solutions were mixed and incubated for 6 min. Finally the absorbance was measured via UV spectrophotometer. Ascorbic acid was used as positive control. % ABTS scavenging potential was measured using eq. 4.
Kindly state % ABTS Scavenging Mean ± SEM for each of the entries shown.
Numbers only, in %.

Examples with their reported % ABTS Scavenging Mean ± SEM follow.
Molecule: Oc1cc(O)cc(O)c1
Measured Parameter: % ABTS Scavenging Mean ± SEM
Readout Value: 51

Molecule: O=C(O)c1cc(O)c(O)c(O)c1
Measured Parameter: % ABTS Scavenging Mean ± SEM
Readout Value: 60

Molecule: O=C1O[C@H]([C@@H](O)CO)C(O)=C1O [Ascorbic acid, reference compound]
Measured Parameter: % ABTS Scavenging Mean ± SEM
Readout Value: 84

% ABTS Scavenging Mean ± SEM reported for this molecule O=c1oc2c(O)c(O)cc3c(=O)oc4c(O)c(O)cc1c4c23 : 65

====

Tgt: Acetyl cholinesterase (Electron-eel Type, VI-S) (Electrophorus electricus, UniProt O42275)
Construct: purchased Sigma-Aldrich, Germany
Sequence (O42275 24-633): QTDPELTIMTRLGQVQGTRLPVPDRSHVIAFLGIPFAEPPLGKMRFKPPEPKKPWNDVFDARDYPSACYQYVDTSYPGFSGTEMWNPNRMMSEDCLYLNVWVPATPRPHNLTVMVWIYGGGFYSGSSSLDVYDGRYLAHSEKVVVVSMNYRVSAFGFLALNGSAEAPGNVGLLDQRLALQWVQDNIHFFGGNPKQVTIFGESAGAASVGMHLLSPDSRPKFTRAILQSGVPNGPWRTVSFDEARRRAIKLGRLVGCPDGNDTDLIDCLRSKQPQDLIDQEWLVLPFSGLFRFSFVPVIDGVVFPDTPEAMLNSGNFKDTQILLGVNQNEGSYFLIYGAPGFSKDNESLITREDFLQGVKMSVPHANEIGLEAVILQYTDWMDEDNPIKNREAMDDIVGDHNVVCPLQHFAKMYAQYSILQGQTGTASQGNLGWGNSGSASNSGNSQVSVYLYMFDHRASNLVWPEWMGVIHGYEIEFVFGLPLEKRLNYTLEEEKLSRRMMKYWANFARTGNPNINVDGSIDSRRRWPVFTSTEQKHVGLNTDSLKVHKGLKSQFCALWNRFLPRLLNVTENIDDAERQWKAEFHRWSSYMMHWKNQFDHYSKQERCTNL
Procedure Text: biochemical
Format: biochemical
Conditions Used: linear regression; read-out: AChE IC50 (converted)
Protocol: Ellman assay was used to evaluate E. umbellata fruit extracts and isolated compounds for their anticholinesterase potentials. About 205 μL extract/compound solutions and 5 μL of AChE (0.03 U/mL)/BChE (0.01 U/mL) along with catalyst DTNB (5 μL) were taken in a cuvette and kept at 30 °C in hot water bath for 15 min. […] As a negative control solution all the above mentioned components except extracts and isolated compounds were mixed in the mentioned order. […]
Record form. Attribute: IC50. Fill in for each entry.
Numbers only, in µM.

# example entries with known answers
Line Notation: O=C(O)c1cc(O)c(O)c(O)c1
Measured Parameter: IC50
Readout Value: 265
--
Line Notation: O=c1oc2c(O)c(O)cc3c(=O)oc4c(O)c(O)cc1c4c23
Measured Parameter: IC50
Readout Value: 195
--
Line Notation: Oc1cc(O)cc(O)c1
Measured Parameter: IC50
Readout Value: 730

Next, consider the following compound.
Item: O=C(/C=C/c1ccc(O)c(O)c1)O[C@@H]1C[C@](O)(C(=O)O)C[C@@H](O)[C@H]1O | IC50: 87.5

====

Tgt: Acetyl cholinesterase (Electron-eel Type, VI-S) (Electrophorus electricus)
Construct: purchased Sigma-Aldrich, Germany
Procedure Text: biochemical
Assay type: biochemical
Conditions Used: 125 µg/mL
Give measured % AChE Mean ± SEM for each item. Keep answers brief.
One number for each entry, in %.

Example entries and their recorded answers appear below.
Line Notation: O=C(/C=C/c1ccc(O)c(O)c1)O[C@@H]1C[C@](O)(C(=O)O)C[C@@H](O)[C@H]1O
Tgt: Acetyl cholinesterase (Electron-eel Type, VI-S) (Electrophorus electricus)
Readout Units: %
% AChE Mean ± SEM: 68
//
Line Notation: Oc1cc(O)cc(O)c1
Tgt: Acetyl cholinesterase (Electron-eel Type, VI-S) (Electrophorus electricus)
Readout Units: %
% AChE Mean ± SEM: 34
//
Line Notation: O=c1oc2c(O)c(O)cc3c(=O)oc4c(O)c(O)cc1c4c23
Tgt: Acetyl cholinesterase (Electron-eel Type, VI-S) (Electrophorus electricus)
Readout Units: %
% AChE Mean ± SEM: 52

# context switch: different compound, same % AChE Mean ± SEM
Note to self: % AChE Mean ± SEM recorded for O=C(O)c1cc(O)c(O)c(O)c1 was 49
